# Subject Of Test: T1, EsCas13d, nuclease-dead (Eubacterium siraeum, UniProt B0MS50, R295A;H300A;R849A;H854A)
# T1 sequence: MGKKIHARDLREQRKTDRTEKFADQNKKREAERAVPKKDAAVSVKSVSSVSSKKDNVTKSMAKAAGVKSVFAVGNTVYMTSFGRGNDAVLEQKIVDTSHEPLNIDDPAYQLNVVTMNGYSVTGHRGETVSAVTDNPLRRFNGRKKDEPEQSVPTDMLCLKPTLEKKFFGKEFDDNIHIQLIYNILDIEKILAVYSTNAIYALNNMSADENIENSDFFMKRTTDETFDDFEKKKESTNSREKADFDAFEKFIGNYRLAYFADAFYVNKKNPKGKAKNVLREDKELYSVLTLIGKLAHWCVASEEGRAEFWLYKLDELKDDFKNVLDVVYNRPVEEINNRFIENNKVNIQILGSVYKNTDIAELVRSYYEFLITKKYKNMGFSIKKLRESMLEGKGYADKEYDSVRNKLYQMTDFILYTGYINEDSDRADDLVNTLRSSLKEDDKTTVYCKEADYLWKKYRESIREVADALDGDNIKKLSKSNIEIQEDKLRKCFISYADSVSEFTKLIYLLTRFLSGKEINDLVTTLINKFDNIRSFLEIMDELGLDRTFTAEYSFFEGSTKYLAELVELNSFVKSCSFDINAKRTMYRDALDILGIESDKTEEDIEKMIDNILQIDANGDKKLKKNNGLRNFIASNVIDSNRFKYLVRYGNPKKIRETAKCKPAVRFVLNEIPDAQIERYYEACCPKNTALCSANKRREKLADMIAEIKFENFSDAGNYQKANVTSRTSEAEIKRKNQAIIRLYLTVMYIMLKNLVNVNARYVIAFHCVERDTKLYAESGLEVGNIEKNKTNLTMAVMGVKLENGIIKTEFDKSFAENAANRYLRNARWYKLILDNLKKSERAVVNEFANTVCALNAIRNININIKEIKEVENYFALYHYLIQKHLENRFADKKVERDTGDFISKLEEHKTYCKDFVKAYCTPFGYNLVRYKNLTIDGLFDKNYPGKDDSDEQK
# Assay Text: crRNA (strand 1, pre-loaded); Mg2+; 40 mM Tris-HCl pH 7.5, 150 mM NaCl, 6 mM MgCl2, 1 mM DTT, 0.1% Tween-20, 0.2 mg/ml BSA; 25 C; 10 min per concentration, then washed
# Experimental Conditions: tags: His6-TwinStrep-SUMO cleaved; N-terminal SNAP kept (SNAP-Surface 488); label: 3' end held by stalled T7 RNA polymerase
Readout Kind: Kd (nM)
Lab book: enter the figure in nM, no units written.

Input line: Kd for target 1 A1C,U10G (mixed) RNA 1: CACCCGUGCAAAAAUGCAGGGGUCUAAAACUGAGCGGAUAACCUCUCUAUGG RNA 2: GGGAAUGGAUCCACAUCUACGAAUUCGUACCAUAGAGAGGUGAUCCGCUCCCCGAGAUCGGAAGAGCACACGU ?
Output line: 26

Input line: I'd like to know its Kd. The binder in question is target 1 A1C,U3C (mixed) RNA 1: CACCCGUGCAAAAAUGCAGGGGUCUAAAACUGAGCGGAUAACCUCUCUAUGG RNA 2: GGGAAUGGAUCCACAUCUACGAAUUCGUACCAUAGAGAGGUUAUCCGCCCCCCGAGAUCGGAAGAGCACACGU
Output line: 18

Input line: What does the record list as Kd for target 1 insC 3' of 14 (mixed) RNA 1: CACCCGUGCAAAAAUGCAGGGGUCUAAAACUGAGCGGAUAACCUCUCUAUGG RNA 2: GGGAAUGGAUCCACAUCUACGAAUUCGUACCAUAGAGACGGUUAUCCGCUCACCGAGAUCGGAAGAGCACACGU ?
Output line: 43

Input line: Need Kd, item target 1 insU 3' of 22,insA 3' of 7 (mixed) RNA 1: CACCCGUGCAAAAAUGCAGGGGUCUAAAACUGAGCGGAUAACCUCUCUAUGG RNA 2: GGGAAUGGAUCCACAUCUACGAAUUCGUACUCAUAGAGAGGUUAUCACGCUCACCGAGAUCGGAAGAGCACACGU
Output line: 21.9

Input line: Name the recorded Kd for target 1 A14G,G17U (mixed) RNA 1: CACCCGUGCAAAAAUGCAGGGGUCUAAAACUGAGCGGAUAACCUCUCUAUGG RNA 2: GGGAAUGGAUCCACAUCUACGAAUUCGUACCAUAUAGGGGUUAUCCGCUCACCGAGAUCGGAAGAGCACACGU .
Output line: 78

Input line: Query: Kd; subject: target 1 MT 5'PFS GGG 3'PFS UAU (mixed) RNA 1: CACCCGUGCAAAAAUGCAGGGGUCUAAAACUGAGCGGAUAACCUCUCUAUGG RNA 2: GGGAAUGGAUCCACAUCUACGAAUUCGGGCCAUAGAGAGGUUAUCCGCUCAUAUAGAUCGGAAGAGCACACGU
Output line: 16.7

Input line: What measured Kd goes with target 1 C2A,U10A (mixed) RNA 1: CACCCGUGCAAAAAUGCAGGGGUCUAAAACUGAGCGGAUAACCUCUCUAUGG RNA 2: GGGAAUGGAUCCACAUCUACGAAUUCGUACCAUAGAGAGGUAAUCCGCUAACCGAGAUCGGAAGAGCACACGU ?
Output line: 13.9

Input line: Report Kd for target 1 insG 3' of 11,insA 3' of 6 (mixed) RNA 1: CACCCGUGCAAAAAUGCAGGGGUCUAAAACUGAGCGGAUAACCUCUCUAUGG RNA 2: GGGAAUGGAUCCACAUCUACGAAUUCGUACCAUAGAGAGGUGUAUCCAGCUCACCGAGAUCGGAAGAGCACACGU please.
Output line: 94

Input line: Value lookup for Kd; key = target 1 MT 5'PFS GCC 3'PFS AUG (mixed) RNA 1: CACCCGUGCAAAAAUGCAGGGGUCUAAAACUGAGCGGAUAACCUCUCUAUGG RNA 2: GGGAAUGGAUCCACAUCUACGAAUUCGCCCCAUAGAGAGGUUAUCCGCUCAAUGAGAUCGGAAGAGCACACGU
Output line: 16.5

Input line: Which Kd is reported for this binder? target 1 insU 3' of 15,insU 3' of 15 (mixed) RNA 1: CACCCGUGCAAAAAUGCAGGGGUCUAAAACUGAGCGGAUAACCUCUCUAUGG RNA 2: GGGAAUGGAUCCACAUCUACGAAUUCGUACCAUAGAGUUAGGUUAUCCGCUCACCGAGAUCGGAAGAGCACACGU
Output line: 17.6

Input line: Record request: Kd value, item target 2 MT 5'PFS GCA 3'PFS CGA (mixed) RNA 1: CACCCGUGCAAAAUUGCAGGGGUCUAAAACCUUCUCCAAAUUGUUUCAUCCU RNA 2: GGGAAUGGAUCCACAUCUACGAAUUCGCAAGGAUGAAACAAUUUGGAGAAGCGAAGAUCGGAAGAGCACACGU
Output line: 8.4

Input line: Which Kd is listed for target 2 MT 5'PFS UAG 3'PFS AUC (mixed) RNA 1: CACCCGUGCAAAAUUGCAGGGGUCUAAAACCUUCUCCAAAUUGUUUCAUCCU RNA 2: GGGAAUGGAUCCACAUCUACGAAUUCUAGAGGAUGAAACAAUUUGGAGAAGAUCAGAUCGGAAGAGCACACGU ?
Output line: 3.3

Input line: Entry under review: target 3 G3A,C6U (mixed) RNA 1: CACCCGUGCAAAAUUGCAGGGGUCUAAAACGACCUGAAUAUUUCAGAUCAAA RNA 2: GGGAAUGGAUCCACAUCUACGAAUUCGUUUUUGAUCUGAAAUAUUUAGAUCUGCAGAUCGGAAGAGCACACGU . Reported Kd?
Output line: 42

Input line: Request the reported Kd associated with target 3 C6G,U7A (mixed) RNA 1: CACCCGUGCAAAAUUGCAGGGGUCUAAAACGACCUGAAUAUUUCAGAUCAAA RNA 2: GGGAAUGGAUCCACAUCUACGAAUUCGUUUUUGAUCUGAAAUAUAGAGGUCUGCAGAUCGGAAGAGCACACGU
Output line: 48.5

Input line: Request the reported Kd associated with target 1 U8A,A9U (mixed) RNA 1: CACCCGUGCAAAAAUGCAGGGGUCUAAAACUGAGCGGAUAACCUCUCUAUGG RNA 2: GGGAAUGGAUCCACAUCUACGAAUUCGUACCAUAGAGAGGUUUACCGCUCACCGAGAUCGGAAGAGCACACGU
Output line: 12.9

Origin of values: paper PMC10786891
